assay: PK, intravenous administration; assay type: in vivo; conditions: rat, plasma, male Sprague Dawley rats, dose about 1 mg/kg, read-out: Vdss
quantity-name: Vd (L/kg)

Check out these entries, answers already filled in.
COc1cc(-c2ccc3c(c2Nc2nnc(S(=O)(=O)N4CCC(N(C)C)CC4)[nH]2)CCO3)ccn1
1.48
CN1CCC2(C1)CN(S(=O)(=O)c1nnc(Nc3c(-c4ccnc(OC(F)F)c4)ccc4c3CCC4)[nH]1)C2
4.21
CNC1CCN(S(=O)(=O)c2nnc(Nc3c4c(cc5c3CCC5)CCC4)[nH]2)CC1
10.6
CC(C)(O)Cn1ccc(S(=O)(=O)c2nnc(Nc3c4c(cc5c3CCC5)CCC4)[nH]2)n1
0.518
CCN(CC)CCCS(=O)(=O)c1nnc(Nc2c(-c3ccnc(OC)c3)cc(F)cc2C(C)C)[nH]1
5.03

[I] COc1cc(-c2c(C)cc3c(c2Nc2nnc(S(=O)(=O)N4CCC(N(C)C)CC4)[nH]2)CCC3)ccn1
[II] CN(C)Cc1ccc(S(=O)(=O)c2nnc(Nc3c4c(cc5c3CCC5)CCC4)[nH]2)cc1
[III] COc1cc(-c2cc(F)cc(C(C)C)c2Nc2nnc(S(=O)(=O)c3ccccc3)[nH]2)ccn1
[IV] CN1CCC12CCN(S(=O)(=O)c1nnc(Nc3c4c(cc5c3CCC5)CCC4)[nH]1)CC2
[V] CNCCCS(=O)(=O)c1nnc(Nc2c3c(cc4c2CCC4)CCC3)[nH]1
# input Put the items in sequence by Vd, from largest down. A ranking is expressed here by listing the labels in the requested order.
# output IV, I, V, III, II
(IV: 9.16 L/kg, I: 6.41 L/kg, V: 2.7 L/kg, III: 1.59 L/kg, II: 0.66 L/kg)

[1] COc1cc(-c2ccc3c(c2Nc2nnc(S(=O)(=O)N4CC[C@H](C(C)(C)O)C4)[nH]2)CCC3)ccn1
[2] COc1cc(-c2cc(F)c3c(c2Nc2nnc(S(=O)(=O)N4CC5(CCN(C)C5)C4)[nH]2)CCC3)ccn1
[3] COc1cc(-c2cc(F)cc(C(C)C)c2Oc2nnc(S(=O)(=O)N3CCC4(CCN4C)CC3)[nH]2)ccn1
[4] CC(C)c1cc(F)cc(C(C)C)c1Nc1nnc(S(=O)(=O)N2CCC3(CCCN3C)CC2)[nH]1
# input # rank by Vd, ascending (min first) // ordering of labels required in reply
# output 1, 3, 2, 4
(1: 0.494 L/kg, 3: 0.82 L/kg, 2: 5.21 L/kg, 4: 12.7 L/kg)

* * *

assay: PK, intravenous administration; format: in vivo; settings: rat, plasma, male Sprague Dawley rats, dose about 1 mg/kg
quantity-name: AUC (ng·h/mL)

Examples with answers:
O=S(=O)(c1ccccc1)c1nnc(Nc2c3c(cc4c2CCC4)CCC3)[nH]1
1460
COc1cc(-c2ccc3c(c2Nc2nnc(S(=O)(=O)N4CCC(N(C)C)CC4)[nH]2)CCO3)ccn1
216
COc1cc(-c2cc(F)cc(C(C)C)c2Oc2nnc(S(=O)(=O)N3CCC4(CCN4C)CC3)[nH]2)ccn1
362
CC(C)c1cc(F)cc(C(C)C)c1Nc1nnc(S(=O)(=O)N2CCC3(CCCN3C)CC2)[nH]1
253

[P] CC(C)(O)Cn1ccc(S(=O)(=O)c2nnc(Nc3c4c(cc5c3CCC5)CCC4)[nH]2)n1
[Q] O=S(=O)(c1nnc(Nc2c3c(cc4c2CCC4)CCC3)[nH]1)N1CCC2(CCCN2)CC1
# input Lab log: flag the item ( P or Q ) with the smaller AUC figure. Please respond with the label that marks your chosen entry.
# output Q
(Q: 175 ng·h/mL, P: 1240 ng·h/mL)

[P] COc1cc(-c2ccc3c(c2Nc2nnc(S(=O)(=O)N4CC5(CCN(C)C5)C4)[nH]2)CCC3)ccn1
[Q] CN1CCC12CCN(S(=O)(=O)c1nnc(Nc3c4c(cc5c3CCC5)CCC4)[nH]1)CC2
# input Please state the entry with greater AUC among P and Q . Please identify the chosen entry by its label.
# output Q

[a] CC(C)N1CC(S(=O)(=O)c2nnc(Nc3c4c(cc5c3CCC5)CCC4)[nH]2)C1
[b] CN(C)CCCS(=O)(=O)c1nnc(Nc2c3c(cc4c2CCC4)CCC3)[nH]1
[c] Cn1cc(S(=O)(=O)c2nnc(Nc3c4c(cc5c3CCC5)CCC4)[nH]2)cn1
# input Order the records, beginning with the lowest AUC and ending with the highest. Labels, requested order.
# output b, a, c
(b: 196 ng·h/mL, a: 364 ng·h/mL, c: 2250 ng·h/mL)

[A] CN(C)C1CCN(S(=O)(=O)c2nnc(Nc3c4c(cc5c3CCC5)CCC4)[nH]2)CC1
[B] COc1cc(-c2cc(F)cc(C(C)C)c2Nc2nnc(S(=O)(=O)N3CCC(CN(C)C)C3)[nH]2)ccn1 (stereo not shown)
# input Short answer wanted: higher AUC, A or B ? # answer = label of selected item
# output A

[1] CN1CCCC12CCN(S(=O)(=O)c1nnc(Nc3c4c(cc5c3CCC5)CCC4)[nH]1)CC2
[2] CN1CCC(Oc2cc(-c3ccc4c(c3Nc3nnc(S(C)(=O)=O)[nH]3)CCC4)ccn2)CC1
# input For the pair 1 and 2 , which member has the lower AUC number? State your choice using its label.
# output 1
(1: 278 ng·h/mL, 2: 430 ng·h/mL)

Values from patent US20210261512A1
